Source listed as ChEMBL document CHEMBL4609978.

experiment: Prodrug conversion in Beagle dog liver assessed as increase in nucleotide triphosphate level at 5 mg/kg, po co-dosed with 5 mg/kg sofosbuvir measured after 24 hrs by LC-MS/MS analysis relative to sofosbuvir; format: ADME, organism-based, Canis lupus familiaris; details: in vivo
OUTCOME MEASURE: fold change (FC)

Measured fold change (FC) of CCOC(=O)C(C)(C)N[P@](=O)(OC[C@H]1O[C@@H](n2ccc(=O)[nH]c2=O)[C@@](F)(Br)[C@@H]1O)Oc1ccccc1 : 5 to 6

---

test: Distribution coefficient, logD of compound by HT-LCMS analysis; type: physicochemical; conditions: octanol/water
Binary label based on logD with cut-off 3: below gives y, not below gives n.

>>> class_name("CC(C)OC(=O)[C@H](C)N[P@@](=O)(OC[C@H]1O[C@@H](n2ccc(=O)[nH]c2=O)[C@](Cl)(Br)[C@@H]1O)Oc1ccccc1")
"n"

Consider the compound CCOC(=O)C(C)(C)N[P@](=O)(OC[C@H]1O[C@@H](n2ccc(=O)[nH]c2=O)[C@@](F)(Br)[C@@H]1O)Oc1ccccc1 . Is its logD strictly less than 3?
y

Consider the compound CCOC(=O)C(C)(C)N[P@](=O)(OC[C@H]1O[C@@H](n2ccc(=O)[nH]c2=O)[C@](Cl)(Br)[C@@H]1O)Oc1ccccc1 . Is its logD strictly less than 3?
n

Consider the compound CC(C)OC(=O)C(C)(C)NP(=O)(OC[C@H]1O[C@@H](n2ccc(=O)[nH]c2=O)[C@](Cl)(Br)[C@@H]1O)Oc1ccccc1 (stereo partly specified) . Is its logD strictly less than 3?
n

---

assay: Prodrug conversion in Beagle dog liver assessed as nucleotide triphosphate level at 5 mg/kg, po co-dosed with 5 mg/kg sofosbuvir measured after 24 hrs by LC-MS/MS analysis; type: ADME, organism-based, Canis lupus familiaris; details: in vivo
Known Drug metabolism of a selection of compounds
Number in µM, nothing else.

Known Drug metabolism results, listed for orientation:
>>> experimental_result("CC(C)OC(=O)[C@H](C)N[P@@](=O)(OC[C@H]1O[C@@H](n2ccc(=O)[nH]c2=O)[C@](Cl)(Br)[C@@H]1O)Oc1ccccc1")
1.26
>>> experimental_result("CCOC(=O)C(C)(C)N[P@](=O)(OC[C@H]1O[C@@H](n2ccc(=O)[nH]c2=O)[C@@](F)(Br)[C@@H]1O)Oc1ccccc1")
6.64
>>> experimental_result("CCOC(=O)C(C)(C)N[P@@](=O)(OC[C@H]1O[C@@H](n2ccc(=O)[nH]c2=O)[C@](Cl)(Br)[C@@H]1O)Oc1ccccc1")
4.03

Moving on to another compound below.
Measured Drug metabolism of CCOC(=O)C(C)(C)N[P@](=O)(OC[C@H]1O[C@@H](n2ccc(=O)[nH]c2=O)[C@](Cl)(Br)[C@@H]1O)Oc1ccccc1 : 5.44

---

assay: Prodrug conversion in Beagle dog liver assessed as nucleotide triphosphate level at 5 mg/kg, po co-dosed with 5 mg/kg sofosbuvir measured after 4 hrs by LC-MS/MS analysis; type: ADME, organism-based, Canis lupus familiaris; conditions: in vivo
Known Drug metabolism of a selection of compounds
Number in µM, nothing else.

>>> experimental_result("CCOC(=O)C(C)(C)N[P@@](=O)(OC[C@H]1O[C@@H](n2ccc(=O)[nH]c2=O)[C@](Cl)(Br)[C@@H]1O)Oc1ccccc1")
5.35
>>> experimental_result("CC(C)OC(=O)C(C)(C)NP(=O)(OC[C@H]1O[C@@H](n2ccc(=O)[nH]c2=O)[C@](Cl)(Br)[C@@H]1O)Oc1ccccc1 (some centres not stated)")
4.2
>>> experimental_result("CCOC(=O)C(C)(C)N[P@](=O)(OC[C@H]1O[C@@H](n2ccc(=O)[nH]c2=O)[C@@](F)(Br)[C@@H]1O)Oc1ccccc1")
7

Measured Drug metabolism of CC(C)OC(=O)[C@H](C)N[P@](=O)(OC[C@H]1O[C@@H](n2ccc(=O)[nH]c2=O)[C@@](F)(Br)[C@@H]1O)Oc1ccccc1 : 7.39

Measured Drug metabolism of CC(C)OC(=O)[C@H](C)N[P@@](=O)(OC[C@H]1O[C@@H](n2ccc(=O)[nH]c2=O)[C@](Cl)(Br)[C@@H]1O)Oc1ccccc1 : 1.76

Measured Drug metabolism of CCOC(=O)C(C)(C)N[P@](=O)(OC[C@H]1O[C@@H](n2ccc(=O)[nH]c2=O)[C@](Cl)(Br)[C@@H]1O)Oc1ccccc1 : 15.03

Measured Drug metabolism of CC(C)OC(=O)[C@H](C)N[P@](=O)(OC[C@H]1O[C@@H](n2ccc(=O)[nH]c2=O)[C@](Cl)(Br)[C@@H]1O)Oc1ccccc1 : 1.59
